target: T1, human transferrin receptor (hTfR) fused to EGFP, on CHO cells (human, UniProt P02786 1-760); assay: apparent Kd, cell-based assay
T1 construct: whole, on cells; also called human TfR; CHO-hTfR-EGFP; not shown: EGFP from pEGFP-C1 vector, fused to the N-terminal (intracellular) end of hTfR
T1 sequence (P02786 whole entry, the tested form may be a part): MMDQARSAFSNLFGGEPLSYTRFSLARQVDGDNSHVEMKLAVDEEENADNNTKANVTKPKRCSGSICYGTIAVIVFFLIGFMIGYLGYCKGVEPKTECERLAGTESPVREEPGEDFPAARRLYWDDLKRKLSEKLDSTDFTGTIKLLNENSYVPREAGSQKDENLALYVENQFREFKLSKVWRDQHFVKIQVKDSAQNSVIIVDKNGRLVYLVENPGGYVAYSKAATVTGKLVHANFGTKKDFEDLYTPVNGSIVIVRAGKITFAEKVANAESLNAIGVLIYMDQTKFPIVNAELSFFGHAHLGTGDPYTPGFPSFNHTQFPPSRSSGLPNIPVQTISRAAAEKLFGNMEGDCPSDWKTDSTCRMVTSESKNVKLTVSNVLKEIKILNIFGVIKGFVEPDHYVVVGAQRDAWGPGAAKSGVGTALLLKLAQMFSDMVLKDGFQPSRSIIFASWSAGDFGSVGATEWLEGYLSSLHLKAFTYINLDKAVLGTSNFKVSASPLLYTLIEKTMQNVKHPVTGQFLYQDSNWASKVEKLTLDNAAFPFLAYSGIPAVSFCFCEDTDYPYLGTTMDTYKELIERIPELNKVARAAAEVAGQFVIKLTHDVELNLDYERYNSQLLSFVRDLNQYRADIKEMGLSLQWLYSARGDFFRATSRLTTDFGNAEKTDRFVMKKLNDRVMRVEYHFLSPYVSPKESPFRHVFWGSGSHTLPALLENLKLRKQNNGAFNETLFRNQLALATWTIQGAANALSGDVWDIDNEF
Quantity: Kd
Reply with the number, then its unit.

B8V31-NT(8-13) (VHH) VHH: EVQLVESGGGVVQPGGSLRLSCAASGEIKSINFMRWYRQAPGKQREWVAGFTRDGSTNYPDSAKGRFTISRDNAKNTVYLQIDSLKPEDTAVYYCYMLDTWGQGTQVTVSS    25.6 nM
C12b-NT(8-13) (VHH) VHH: QVQLVQSGGGLVQPGGSLRLSCAASGFTFSAYAMSWVRQAPGKGRELVASISRTGDGTYYADGMKGRFTISRDNAENTVSLQINSLKPEDTAIYYCGAGINPTKYWGQGTQVTVSS    1860 nM
C5h18-NT(8-13) (VHH) VHH: EVQLVESGGGVVQPGGSLKLSCVASGTDFSINFIRWYRQAPGKGLEFVAGFTATGNTNYADSVKGRFTISRDNAKNTLYLQMNSLRPEDTAVYYCYMLDKWGQGTQVTVSS    16.8 nM

Now examine the next entry.
**Q:** Can you look up the measured Kd of C5V30-NT(8-13) (VHH) VHH: EVQLVESGGGVVQPGGSLKLSCVASGTDKSINFIRWYRQAPGKQREFVAGFTATGNTNYADSMKGRFTISRDNTKNAVYLQIDSLKPEDTAVYYCYMLDKWGQGTQVTVSS for me?
**A:** 16.7 nM
